Data origin, for the record: ChEMBL document CHEMBL4033795

Biological target: Fibroblast growth factor receptor 1 (Homo sapiens, UniProt P11362)
Sequence (P11362 whole entry, the tested form may be a part): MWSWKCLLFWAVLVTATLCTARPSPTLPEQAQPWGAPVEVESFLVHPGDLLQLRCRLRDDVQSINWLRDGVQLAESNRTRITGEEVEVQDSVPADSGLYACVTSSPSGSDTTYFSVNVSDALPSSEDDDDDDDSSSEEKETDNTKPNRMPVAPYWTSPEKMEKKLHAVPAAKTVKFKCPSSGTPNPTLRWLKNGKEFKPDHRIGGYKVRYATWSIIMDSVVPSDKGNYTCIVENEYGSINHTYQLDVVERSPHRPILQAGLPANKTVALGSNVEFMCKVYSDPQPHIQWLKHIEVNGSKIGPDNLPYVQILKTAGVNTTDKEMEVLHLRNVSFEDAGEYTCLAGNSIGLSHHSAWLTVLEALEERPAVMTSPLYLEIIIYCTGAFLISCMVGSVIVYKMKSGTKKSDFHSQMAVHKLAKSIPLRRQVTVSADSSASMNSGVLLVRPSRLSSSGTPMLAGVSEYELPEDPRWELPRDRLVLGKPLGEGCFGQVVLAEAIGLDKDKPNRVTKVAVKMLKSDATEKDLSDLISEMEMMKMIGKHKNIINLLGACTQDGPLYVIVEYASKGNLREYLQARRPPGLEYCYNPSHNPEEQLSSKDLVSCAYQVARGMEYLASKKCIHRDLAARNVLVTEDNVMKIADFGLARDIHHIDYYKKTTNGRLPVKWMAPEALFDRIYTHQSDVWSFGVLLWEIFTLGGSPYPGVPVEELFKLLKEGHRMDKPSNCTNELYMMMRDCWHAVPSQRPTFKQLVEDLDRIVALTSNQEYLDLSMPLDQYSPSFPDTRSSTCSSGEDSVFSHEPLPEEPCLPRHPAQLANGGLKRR
Assay: Inhibition of cytoplasmic recombinant human His-tagged FGFR1 (308 to 731 residues) expressed in baculovirus using tyr4 peptide as substrate after 1 hr by FRET-based Z'-Lyte assay
MEASUREMENT LABEL: IC50 (nM)

INSERT INTO assay_data (mol, measurement_label, unit_symbol, result_value) VALUES
  ('CCC(=O)N1CC[C@H](N2C(=O)N(c3cc(OC)ccc3Cl)Cc3cnc(Nc4ccc(N5CCN(C6COC6)CC5)c(C)c4)nc32)C1', 'IC50', 'nM', 10);

* * *

Assay: Half life in Sprague-Dawley rat at 5 mg/kg, iv measured up to 72 hrs by LC/MS analysis
Assay type: ADME, organism-based
Settings: in vivo
Consider the following compounds and their measured half-life readings.
MEASUREMENT LABEL: half-life (min)

INSERT INTO assay_data (mol, measurement_label, result_value) VALUES
  ('CCC(=O)N1CC[C@H](N2C(=O)N(c3cc(OC)ccc3Cl)Cc3cnc(Nc4ccc(N5CCN(C6COC6)CC5)c(C)c4)nc32)C1', 'half-life', 64.8),
  ('CCC(=O)N1CC[C@H](N2C(=O)N(c3cc(OC)ccc3Cl)Cc3cnc(Nc4ccc(N5CCN(C)CC5)c(C)c4)nc32)C1', 'half-life', 209),
  ('CCC(=O)N1CC[C@H](N2C(=O)N(c3cc(OC)ccc3F)Cc3cnc(Nc4ccc(N5CCN(C)CC5)c(C)c4)nc32)C1', 'half-life', 138);

* * *

Target: Macrophage colony-stimulating factor 1 receptor (Homo sapiens)
Sequence (P07333 whole entry, the tested form may be a part): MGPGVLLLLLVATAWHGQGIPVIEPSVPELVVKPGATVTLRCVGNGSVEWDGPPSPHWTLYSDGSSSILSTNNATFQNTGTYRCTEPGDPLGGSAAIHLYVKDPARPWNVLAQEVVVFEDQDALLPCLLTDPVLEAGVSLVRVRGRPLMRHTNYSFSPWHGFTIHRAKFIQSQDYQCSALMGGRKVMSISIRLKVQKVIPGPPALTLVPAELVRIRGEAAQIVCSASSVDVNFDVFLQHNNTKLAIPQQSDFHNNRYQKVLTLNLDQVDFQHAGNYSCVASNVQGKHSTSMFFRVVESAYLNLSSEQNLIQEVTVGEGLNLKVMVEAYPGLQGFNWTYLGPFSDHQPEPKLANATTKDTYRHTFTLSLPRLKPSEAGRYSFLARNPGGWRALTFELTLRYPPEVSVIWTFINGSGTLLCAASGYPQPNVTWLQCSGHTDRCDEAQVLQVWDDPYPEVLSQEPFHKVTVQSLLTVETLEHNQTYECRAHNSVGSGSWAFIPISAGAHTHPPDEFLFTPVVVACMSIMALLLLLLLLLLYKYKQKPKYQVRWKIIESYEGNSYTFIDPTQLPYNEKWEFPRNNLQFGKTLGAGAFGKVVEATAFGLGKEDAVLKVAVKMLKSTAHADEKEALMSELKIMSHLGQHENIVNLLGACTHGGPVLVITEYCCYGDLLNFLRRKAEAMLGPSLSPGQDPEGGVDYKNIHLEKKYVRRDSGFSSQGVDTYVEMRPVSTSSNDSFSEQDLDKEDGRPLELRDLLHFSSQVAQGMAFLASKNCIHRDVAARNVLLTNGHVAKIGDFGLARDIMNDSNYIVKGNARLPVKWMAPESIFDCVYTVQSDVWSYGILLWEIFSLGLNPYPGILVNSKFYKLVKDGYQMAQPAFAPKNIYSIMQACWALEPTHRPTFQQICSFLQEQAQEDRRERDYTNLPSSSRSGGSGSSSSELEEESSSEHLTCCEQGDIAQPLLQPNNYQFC
Assay: Inhibition of recombinant human His-tagged CSF1R cytoplasmic domain (538 to 910 residues) expressed in baculovirus using tyr4 peptide as substrate after 1 hr by FRET-based Z'-Lyte assay
Values of IC50 strictly less than 10 nM map to 1, and values of at least 10 nM map to 0.

INSERT INTO assay_data (molecule, label_value) VALUES
  ('CCC(=O)N1CC[C@H](N2C(=O)N(c3cccc(F)c3)Cc3cnc(Nc4ccc(N5CCN(C)CC5)c(C)c4)nc32)C1', 0),
  ('CCC(=O)N1CC[C@H](N2C(=O)N(c3cc(OC)ccc3F)Cc3cnc(Nc4ccc(N5CCN(C)CC5)cc4)nc32)C1', 0),
  ('CCC(=O)N1CC[C@H](N2C(=O)N(c3cccc(OC(F)F)c3)Cc3cnc(Nc4ccc(N5CCN(C)CC5)c(C)c4)nc32)C1', 0),
  ('CCC(=O)N1CC[C@H](N2C(=O)N(c3cc(OC)ccc3F)Cc3cnc(Nc4ccc(N5CCC6(CCN(C)CC6)CC5)c(C)c4)nc32)C1', 1),
  ('CCC(=O)N1CC[C@H](N2C(=O)N(c3cc(OC)ccc3F)Cc3cnc(Nc4ccc(N5C[C@@H](C)N(C)[C@@H](C)C5)c(C)c4)nc32)C1', 1),
  ('CCC(=O)N1CC[C@H](N2C(=O)N(c3cccc(OC(F)(F)F)c3)Cc3cnc(Nc4ccc(N5CCN(C)CC5)c(C)c4)nc32)C1', 0),
  ('Cc1cc(Nc2ncc3c(n2)N([C@H]2CCN(C(=O)C4CCCC4)C2)C(=O)N(c2ccccc2Cl)C3)ccc1N1CCN(C)CC1', 0),
  ('Cc1cc(Nc2ncc3c(n2)N([C@H]2CCN(C(=O)CC(C)C)C2)C(=O)N(c2ccccc2Cl)C3)ccc1N1CCN(C)CC1', 0),
  ('Cc1cc(Nc2ncc3c(n2)N([C@H]2CCN(C(=O)C4CC4)C2)C(=O)N(c2ccccc2Cl)C3)ccc1N1CCN(C)CC1', 0),
  ('CCC(=O)N1CC[C@H](N2C(=O)N(c3cc(OC)ccc3F)Cc3cnc(Nc4ccc(N5CCCN(C)CC5)c(C)c4)nc32)C1', 1),
  ('CCC(=O)N1CC[C@H](N2C(=O)N(c3cc(OC)ccc3Cl)Cc3cnc(Nc4ccc(N5CCN(C6COC6)CC5)c(C)c4)nc32)C1', 1),
  ('CCC(=O)N1CC[C@H](N2C(=O)N(c3cccc(OC)c3)Cc3cnc(Nc4ccc(N5CCN(C)CC5)c(C)c4)nc32)C1', 1),
  ('CCC(=O)N1CC[C@H](N2C(=O)N(c3cc(OC)ccc3F)Cc3cnc(Nc4ccc(N5CCCCC5)c(C)c4)nc32)C1', 0),
  ('Cc1cc(Nc2ncc3c(n2)N([C@H]2CCN(C(=O)CN(C)C)C2)C(=O)N(c2ccccc2Cl)C3)ccc1N1CCN(C)CC1', 0),
  ('CCC(=O)N1CC[C@H](N2C(=O)N(c3cc(OC)ccc3F)Cc3cnc(Nc4ccc(N(C)CCN(C)C)c(C)c4)nc32)C1', 0),
  ('CCC(=O)N1CC[C@H](N2C(=O)N(c3ccccc3Cl)Cc3cnc(Nc4ccc(N5CCN(C)CC5)c(C)c4)nc32)C1', 1),
  ('CCC(=O)N1CC[C@H](N2C(=O)N(c3ccccc3C)Cc3cnc(Nc4ccc(N5CCN(C)CC5)c(C)c4)nc32)C1', 1),
  ('CCC(=O)N1CC[C@H](N2C(=O)N(c3cc(OC)ccc3F)Cc3cnc(Nc4ccc(N5CCOCC5)c(C)c4)nc32)C1', 0),
  ('C=CC(=O)N1CC[C@H](N2C(=O)N(c3ccccc3Cl)Cc3cnc(Nc4ccc(N5CCN(C)CC5)c(C)c4)nc32)C1', 0),
  ('Cc1cc(Nc2ncc3c(n2)N([C@H]2CCN(C(=O)CO)C2)C(=O)N(c2ccccc2Cl)C3)ccc1N1CCN(C)CC1', 0),
  ('CCC(=O)N1CC[C@H](N2C(=O)N(c3cc(OC)ccc3Cl)Cc3cnc(Nc4ccc(N5CCN(C)CC5)c(C)c4)nc32)C1', 1),
  ('CCC(=O)N1CC[C@H](N2C(=O)N(c3cc(OC)ccc3F)Cc3cnc(Nc4ccc(N5CCN(C6COC6)CC5)c(C)c4)nc32)C1', 1),
  ('CC(=O)N1CC[C@H](N2C(=O)N(c3ccccc3Cl)Cc3cnc(Nc4ccc(N5CCN(C)CC5)c(C)c4)nc32)C1', 1),
  ('CCC(=O)N1CC[C@H](N2C(=O)N(c3cccc(Cl)c3)Cc3cnc(Nc4ccc(N5CCN(C)CC5)c(C)c4)nc32)C1', 0),
  ('CCC(=O)N1CC[C@H](N2C(=O)N(c3cc(OC)ccc3F)Cc3cnc(Nc4ccc(N5CCC6(CCN(C)C6)C5)c(C)c4)nc32)C1 (some centres undefined)', 1),
  ('Cc1cc(Nc2ncc3c(n2)N([C@H]2CCN(C(=O)C(C)C)C2)C(=O)N(c2ccccc2Cl)C3)ccc1N1CCN(C)CC1', 1),
  ('Cc1cc(Nc2ncc3c(n2)N([C@H]2CCN(C(=O)C(C)(C)C)C2)C(=O)N(c2ccccc2Cl)C3)ccc1N1CCN(C)CC1', 0);

* * *

Listed here are molecules together with their documented pIC50.
Target: Epidermal growth factor receptor (Homo sapiens, UniProt P00533)
Sequence (P00533 whole entry, the tested form may be a part): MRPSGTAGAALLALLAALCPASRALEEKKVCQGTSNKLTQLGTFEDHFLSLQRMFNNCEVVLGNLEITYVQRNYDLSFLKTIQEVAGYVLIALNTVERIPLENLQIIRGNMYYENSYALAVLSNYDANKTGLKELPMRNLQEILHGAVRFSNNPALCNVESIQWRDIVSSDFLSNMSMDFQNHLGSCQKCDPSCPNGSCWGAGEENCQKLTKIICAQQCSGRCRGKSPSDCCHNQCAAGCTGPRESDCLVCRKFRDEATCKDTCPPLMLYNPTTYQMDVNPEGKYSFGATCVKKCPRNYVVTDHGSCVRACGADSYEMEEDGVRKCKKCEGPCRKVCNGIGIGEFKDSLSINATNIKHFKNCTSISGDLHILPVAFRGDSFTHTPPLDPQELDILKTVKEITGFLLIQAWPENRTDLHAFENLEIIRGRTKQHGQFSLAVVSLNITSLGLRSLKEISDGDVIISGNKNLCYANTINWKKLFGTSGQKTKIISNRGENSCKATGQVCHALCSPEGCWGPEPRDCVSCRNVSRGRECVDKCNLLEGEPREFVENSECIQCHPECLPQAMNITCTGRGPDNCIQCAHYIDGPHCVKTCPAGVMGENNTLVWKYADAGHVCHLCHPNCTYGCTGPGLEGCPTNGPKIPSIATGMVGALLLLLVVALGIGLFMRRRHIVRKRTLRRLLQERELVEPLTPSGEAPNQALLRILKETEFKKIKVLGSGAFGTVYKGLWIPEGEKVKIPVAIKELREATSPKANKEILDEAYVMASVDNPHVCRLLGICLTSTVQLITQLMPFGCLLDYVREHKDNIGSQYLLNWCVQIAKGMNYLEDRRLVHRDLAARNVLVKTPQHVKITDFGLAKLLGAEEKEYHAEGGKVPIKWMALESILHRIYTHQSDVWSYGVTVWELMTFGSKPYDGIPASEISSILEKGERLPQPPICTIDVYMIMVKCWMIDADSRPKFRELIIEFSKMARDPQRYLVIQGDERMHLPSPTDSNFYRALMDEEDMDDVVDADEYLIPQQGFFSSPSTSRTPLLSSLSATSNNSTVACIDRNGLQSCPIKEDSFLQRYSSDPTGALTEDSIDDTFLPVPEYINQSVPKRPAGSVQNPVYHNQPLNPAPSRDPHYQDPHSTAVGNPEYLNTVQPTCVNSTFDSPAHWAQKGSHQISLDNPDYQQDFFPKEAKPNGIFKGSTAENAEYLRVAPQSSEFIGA
Experiment: Inhibition of recombinant human wild type GST-tagged EGFR cytoplasmic domain (668 to 1210 residues) expressed in baculovirus using tyr4 peptide as substrate after 1 hr by FRET-based Z'-Lyte assay
pIC50: −log10 of the molar value.
MEASUREMENT LABEL: pIC50

INSERT INTO assay_data (mol, measurement_label, result_value) VALUES
  ('Cc1cc(Nc2ncc3c(n2)N([C@H]2CCN(C(=O)C4CC4)C2)C(=O)N(c2ccccc2Cl)C3)ccc1N1CCN(C)CC1', 'pIC50', 7.54),
  ('CCC(=O)N1CC[C@H](N2C(=O)N(c3ccc(F)cc3)Cc3cnc(Nc4ccc(N5CCN(C)CC5)c(C)c4)nc32)C1', 'pIC50', 7.15),
  ('CCC(=O)N1CC[C@H](N2C(=O)N(c3cc(OC)ccc3F)Cc3cnc(Nc4ccc(N5CCCN(C)CC5)c(C)c4)nc32)C1', 'pIC50', 6.68),
  ('CCC(=O)N1CC[C@H](N2C(=O)N(c3cc(OC)ccc3F)Cc3cnc(Nc4ccc(N5CCOCC5)c(C)c4)nc32)C1', 'pIC50', 6.20),
  ('CCC(=O)N1CC[C@H](N2C(=O)N(c3cc(OC)ccc3F)Cc3cnc(Nc4ccc(N5C[C@@H](C)N(C)[C@@H](C)C5)c(C)c4)nc32)C1', 'pIC50', 6.05),
  ('CCC(=O)N1CC[C@H](N2C(=O)N(c3cc(OC)ccc3F)Cc3cnc(Nc4ccc(N5CCN(C6COC6)CC5)c(C)c4)nc32)C1', 'pIC50', 6.52),
  ('CCC(=O)N1CC[C@H](N2C(=O)N(c3cccc(OC)c3F)Cc3cnc(Nc4ccc(N5CCN(C)CC5)c(C)c4)nc32)C1', 'pIC50', 6.38);

* * *

Test: AUC (0 to infinity) in Sprague-Dawley rat at 5 mg/kg, iv measured up to 72 hrs by LC/MS analysis
Type: ADME, organism-based
Design: dose 5 mg/kg, time infinity, route intravenous
Conditions: in vivo
MEASUREMENT LABEL: AUC(0-inf) (µg·h/mL)

INSERT INTO assay_data (mol, result_value) VALUES
  ('CCC(=O)N1CC[C@H](N2C(=O)N(c3cc(OC)ccc3F)Cc3cnc(Nc4ccc(N5CCN(C)CC5)c(C)c4)nc32)C1', 1.9),
  ('CCC(=O)N1CC[C@H](N2C(=O)N(c3cc(OC)ccc3Cl)Cc3cnc(Nc4ccc(N5CCN(C)CC5)c(C)c4)nc32)C1', 2.77),
  ('CCC(=O)N1CC[C@H](N2C(=O)N(c3cc(OC)ccc3Cl)Cc3cnc(Nc4ccc(N5CCN(C6COC6)CC5)c(C)c4)nc32)C1', 2.91);
